- target.desc: Retinoic acid receptor alpha (Mus musculus)
- Sequence (P11416 whole entry, the tested form may be a part): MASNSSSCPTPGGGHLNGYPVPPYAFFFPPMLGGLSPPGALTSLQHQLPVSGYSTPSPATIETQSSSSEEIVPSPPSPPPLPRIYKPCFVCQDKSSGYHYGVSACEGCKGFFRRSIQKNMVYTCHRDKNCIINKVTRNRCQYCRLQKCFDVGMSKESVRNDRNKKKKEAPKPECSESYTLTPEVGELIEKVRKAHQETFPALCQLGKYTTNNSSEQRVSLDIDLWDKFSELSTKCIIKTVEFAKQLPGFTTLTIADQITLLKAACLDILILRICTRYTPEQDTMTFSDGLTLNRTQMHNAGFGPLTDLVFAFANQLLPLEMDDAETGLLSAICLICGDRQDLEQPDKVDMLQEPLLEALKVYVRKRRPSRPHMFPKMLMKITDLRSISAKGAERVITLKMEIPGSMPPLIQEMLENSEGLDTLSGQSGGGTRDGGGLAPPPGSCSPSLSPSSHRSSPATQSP
- assay.protocol: Antagonist activity at yeast GAL4 fused mouse RARalpha ligand binding domain expressed in HeLa cells assessed as inhibition of TTNPB-induced receptor transactivation by luciferase reporter gene assay
measured.property: IC50 (nM)

> print(dat)
                                   molecule  measured.property  value.prefix  reported.measurement
1  Cc1ccc(C2=CCC(C)(C)c3cc(C(O)/C=C/c4ccc(C(=O)O)cc4)ccc32)cc1 (racemic)               IC50             =                   400
2  Cc1ccc(C2=CCC(C)(C)c3cc(C(=O)/C=C/c4ccc(C(=O)O)cc4)ccc32)cc1               IC50             <                   300
